# pKi per record follows
TEST SYSTEM: Hepatocyte Growth Factor Activator (HGFA) serine protease domain, N-terminal His-tag, recombinant (Homo sapiens (Human)) (UniProt Q04756)
ASSAY EXPLANATION: fluorogenic inhibition assay
pKi: −log10 of the molar value. *: point of attachment. kbt = C-terminal ketobenzothiazole, c1ccc2sc(*)nc2c1; Kbt = ketobenzothiazole, c1ccc2sc(*)nc2c1; kt = C-terminal ketothiazole, c1csc(*)n1; Fmoc = O=C(OCC1c2ccccc2-c2ccccc21)*
READOUT LABEL: pKi

[[record]]
binder = "LLR (N-terminal acetyl; C-terminus printed as -H) [Leupeptin (Ac-LLR-H)]"
endpoint_value = 6.73

[[record]]
binder = "Ac-Leu-Leu-Arg-kt [Ac-LLR-kt]"
endpoint_value = 6.60

[[record]]
binder = "Ac-KRLR-{Kbt-Benzyl‑4‑COOMe} [Ac-KRLR(SEQ ID NO: 8)-kbt-Benzyl-4-COOMe]"
endpoint_value = 8.23

[[record]]
binder = "Fmoc-Tyr-Arg-kbt [Fmoc-YR-kbt]"
endpoint_value = 5.53

[[record]]
binder = "H-Trp-Leu-Arg-kbt [H-WLR-kbt]"
endpoint_value = 6.98

[[record]]
binder = "Fmoc-Val-Arg-kbt [Fmoc-VR-kbt]"
endpoint_value = 5.33

[[record]]
binder = "Fmoc-His-Arg-kbt [Fmoc-HR-kbt]"
endpoint_value = 5.20


The reported numbers originate from patent US20180066015A1.
